Origin of the recorded values: patent US20210214375A1

Target: MAGL (Mus musculus, UniProt O35678)
Construct: from tissue; host or cells: brain of wild-type C57Bl/6J mice
Sequence (O35678 whole entry): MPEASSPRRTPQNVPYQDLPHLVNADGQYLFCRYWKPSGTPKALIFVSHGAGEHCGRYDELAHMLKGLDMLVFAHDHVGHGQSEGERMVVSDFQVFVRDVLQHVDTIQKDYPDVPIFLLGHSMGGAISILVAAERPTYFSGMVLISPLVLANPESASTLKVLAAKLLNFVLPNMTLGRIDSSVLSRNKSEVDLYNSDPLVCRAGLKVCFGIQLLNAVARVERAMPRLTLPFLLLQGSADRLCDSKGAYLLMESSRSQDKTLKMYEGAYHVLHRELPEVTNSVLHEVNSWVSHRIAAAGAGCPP
Test: Mouse brain proteomes from inhibitor treated mice (oral gavage, brain proteomes analyzed 4 h after administration)
Format: in vivo, mouse (C57Bl/6J)
Settings: brain proteome 4 h after administration, read-out: % Inh 5 mg/kg MGLL (Mouse)
Let's look at some molecules and their measured inhibition at 5 mg/kg.

>>> testvalue("CS(=O)(=O)N1CCC2(CCN(c3cc(C(F)(F)F)ccc3CN3CCN(C(=O)OC(C(F)(F)F)C(F)(F)F)CC3)C2)CC1")
"≤ 25%"
>>> testvalue("O=C(OC(C(F)(F)F)C(F)(F)F)N1CCC2(CC1)CN(Cc1c(N3CC4COCC4C3)cccc1C(F)(F)F)C2 (stereo not shown)")
"≥ 75%"
>>> testvalue("CCN1CC2(CCN(c3cc(C(F)(F)F)ccc3CN3CCN(C(=O)OC(C(F)(F)F)C(F)(F)F)CC3)C2)C1")
"≤ 25%"

Next up:
Inquiry: Entry under review: CC(C)(C#Cc1cc(C(F)(F)F)ccc1CN1CCCC12CCN(C(=O)OC(C(F)(F)F)C(F)(F)F)CC2)C(=O)O . Reported inhibition at 5 mg/kg?
Reply text: ≥ 75%
